TEST_TARGET: Delta-type opioid receptor (Mus musculus)
Sequence (P32300 whole entry): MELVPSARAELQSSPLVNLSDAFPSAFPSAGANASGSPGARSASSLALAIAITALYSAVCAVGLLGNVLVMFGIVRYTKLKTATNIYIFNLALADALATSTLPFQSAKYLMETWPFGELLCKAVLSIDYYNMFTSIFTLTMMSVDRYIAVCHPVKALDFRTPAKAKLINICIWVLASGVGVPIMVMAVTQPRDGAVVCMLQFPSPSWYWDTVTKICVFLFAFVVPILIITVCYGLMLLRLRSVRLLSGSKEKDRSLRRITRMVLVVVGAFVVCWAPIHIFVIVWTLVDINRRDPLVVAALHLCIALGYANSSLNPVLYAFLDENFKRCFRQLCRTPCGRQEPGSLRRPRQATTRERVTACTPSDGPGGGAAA
PROTOCOL: Agonist activity at delta opioid receptor in mouse vas deferens assessed as inhibition of electrically-stimulated muscle contraction
pIC50: −log10 of the molar value. Residues, ends and D or L forms follow the SMILES beside them.
What pIC50 was measured for each of the following?

Data request: Need pIC50 of Cc1cc(O)cc(C)c1C[C@H](N)C(=O)N1CCC[C@H]1C(=O)N[C@@H](Cc1ccccc1)C(N)=O (HELM PEPTIDE1{[Cc1cc(O)cc(C)c1C[C@H](N)C(=O)[*:2]].P.F.[am]}$$$$V2.0) , thanks.
Data returned: 6.95

Data request: Entry under review: Cc1cc(O)cc(C)c1C[C@H](NC(=O)[C@H](Cc1ccccc1)NC(=O)[C@@H]1CCCN1C(=O)[C@@H](N)Cc1c(C)cc(O)cc1C)C(N)=O (HELM PEPTIDE1{[Cc1cc(O)cc(C)c1C[C@H](N)C(=O)[*:2]].P.F.[Cc1cc(O)cc(C)c1C[C@H](N[*:1])C(=O)[*:2]].[am]}$$$$V2.0) . Reported pIC50?
Data returned: < 5.00

Data request: Which pIC50 is reported for this molecule? Cc1cc(O)cc(C)c1C[C@H](N)C(=O)N1CCC[C@H]1C(=O)N[C@@H](Cc1ccc2ccccc2c1)C(N)=O (HELM PEPTIDE1{[Cc1cc(O)cc(C)c1C[C@H](N)C(=O)[*:2]].P.[O=C([C@H](Cc1ccc2ccccc2c1)N[*:1])[*:2]].[am]}$$$$V2.0)
Data returned: < 5.00

Data request: Please give the measured pIC50 for this molecule: Cc1cc(O)cc(C)c1C[C@H](N)C(=O)N1CCC[C@H]1C(=O)N[C@@H](Cc1c[nH]c2ccccc12)C(N)=O (HELM PEPTIDE1{[Cc1cc(O)cc(C)c1C[C@H](N)C(=O)[*:2]].P.W.[am]}$$$$V2.0)
Data returned: < 5.00
